Data provenance: ChEMBL document CHEMBL1121569

system: Escherichia coli; experiment: Generation rate constant […] obtained from the inhibition of growth of Escherichia coli cells; assay type: organism-based
recorded-endpoint: Log k

O=C(NC(CO)C(O)c1ccc([N+](=O)[O-])cc1)C(Br)Br (configuration not stated)
1.84
O=C(NC(CO)C(O)c1ccc([N+](=O)[O-])cc1)C(Cl)(Cl)Cl (configuration not stated)
0.75
O=C(CF)NC(CO)C(O)c1ccc([N+](=O)[O-])cc1 (configuration not stated)
1.16

[A] O=C(CCl)NC(CO)C(O)c1ccc([N+](=O)[O-])cc1 (configuration not stated)
[B] CCCC(=O)NC(CO)C(O)c1ccc([N+](=O)[O-])cc1 (configuration not stated)
[C] N#CCC(=O)NC(CO)C(O)c1ccc([N+](=O)[O-])cc1 (configuration not stated)
[D] CC(=O)NC(CO)C(O)c1ccc([N+](=O)[O-])cc1 (configuration not stated)
Arrange the 4 entries by Log k so the values rise. Give the labels in the order requested.
C, D, B, A
(C: 0.14, D: 0.48, B: 0.71, A: 1.71)

###

assay: Evaluated for the inhibition constant determined from the Dixon and slope vs. inhibitor concentration plots; type: functional, Escherichia coli
pKi: −log10 of the molar value.
recorded-endpoint: pKi

[1] O=C(N[C@H](CO)[C@H](O)c1ccc([N+](=O)[O-])cc1)C(Cl)Cl
[2] [N-]=[N+]=NCC(=O)NC(CO)C(O)c1ccc([N+](=O)[O-])cc1 (configuration not stated)
[3] O=C(NC(CO)C(O)c1ccc([N+](=O)[O-])cc1)C(Br)Br (configuration not stated)
// ascending sort on recorded pKi Field: ranking. Enter the labels in the order requested.
2, 1, 3

[a] CS(=O)(=O)NC(CO)C(O)c1ccc([N+](=O)[O-])cc1 (configuration not stated)
[b] O=C(CCl)NC(CO)C(O)c1ccc([N+](=O)[O-])cc1 (configuration not stated)
[c] O=C(NC(CO)C(O)c1ccc([N+](=O)[O-])cc1)C(Cl)(Cl)Cl (configuration not stated)
Could you please sort these 3 entries by pKi from high to low? Output spec: labels arranged per the requested ranking.
a, c, b
(a: 5.96, c: 5.52, b: 4.57)

###

test: Dissociation constant (pKa); format: physicochemical
recorded-endpoint: pKa

O=C(N[C@H](CO)[C@H](O)c1ccc([N+](=O)[O-])cc1)C(Cl)Cl [CHLORAMPHENICOL]
1.29
O=C(NC(CO)C(O)c1ccc([N+](=O)[O-])cc1)C(Cl)(Cl)Cl (stereo not given)
0.65
O=C(CO)NC(CO)C(O)c1ccc([N+](=O)[O-])cc1 (stereo not given)
3.83

[A] O=C(CCl)NC(CO)C(O)c1ccc([N+](=O)[O-])cc1 (stereo not given)
[B] O=C(NC(CO)C(O)c1ccc([N+](=O)[O-])cc1)C1CC1 (stereo not given)
Between these two entries, A and B , state which has the higher pKa. Could you answer with the label of the item you picked?
B
(B: 4.83, A: 2.86)

###

assay: Dissociation constant (pKa); format: physicochemical
recorded-endpoint: pKa

[N-]=[N+]=NCC(=O)NC(CO)C(O)c1ccc([N+](=O)[O-])cc1 (stereo unspecified)
3.03
N#CCC(=O)NC(CO)C(O)c1ccc([N+](=O)[O-])cc1 (stereo unspecified)
2.43
O=C(NC(CO)C(O)c1ccc([N+](=O)[O-])cc1)C1CCC1 (stereo unspecified)
4.79

[A] CS(=O)(=O)NC(CO)C(O)c1ccc([N+](=O)[O-])cc1 (stereo unspecified)
[B] CCC(=O)NC(CO)C(O)c1ccc([N+](=O)[O-])cc1 (stereo unspecified)
Higher pKa: A or B ? Pick one; state its label.
B
(B: 4.88, A: -0.6)

[I] CC(=O)NC(CO)C(O)c1ccc([N+](=O)[O-])cc1 (stereo unspecified)
[II] O=C(NC(CO)C(O)c1ccc([N+](=O)[O-])cc1)c1ccco1 (stereo unspecified)
Identify the item whose pKa is the smaller number: I or II Answer by stating the label of the chosen item.
II
(II: 3.12, I: 4.76)
